# assay procedure: Phase I DDI study: pevonedistat plasma PK alone and with itraconazole
# Assay type: in vivo, human
# experimental context: human, plasma, iv, 8 mg, CL, geometric mean (% CV), 8 mg m^−2 IV single dose, – itraconazole (day 1), n=13
assay metric: clearance (mL/min)
Give the quantity in mL/min, number only.

Suppose we examine the molecule NS(=O)(=O)OC[C@@H]1C[C@@H](n2ccc3c(N[C@H]4CCc5ccccc54)ncnc32)C[C@@H]1O ; what clearance value has been reported? 487

---

# assay procedure: Phase I DDI study: pevonedistat plasma PK alone and with fluconazole
# Format: in vivo, human
# experimental context: human, plasma, iv, 8 mg
assay metric: clearance (mL/min)
Give the quantity in mL/min, number only.

Suppose we examine the compound NS(=O)(=O)OC[C@@H]1C[C@@H](n2ccc3c(N[C@H]4CCc5ccccc54)ncnc32)C[C@@H]1O ; what clearance value has been reported? 528

Ref: paper PMC6595297
